Assay: Cytotoxicity against human endothelial cells assessed as viable cells upto 40 ug/ml relative to control
Format: toxicity, cell-based, Endothelial cell
Settings: up to 40 µg/mL, read-out: Activity
outcome measure: viability

Request: Please supply the value of reported viability for the item CCCCc1nc(Cl)c(C2NC(=O)NC(CN(c3cc(C)no3)S(=O)(=O)c3ccc(N)cc3)=C2C(=O)OCC)[nH]1 (stereo unspecified)
Result: > 50%

---

// reported MIC per item
System: Staphylococcus aureus
Test: Antibacterial activity against Staphylococcus aureus assessed as inhibition of bacterial growth by two fold serial dilution method
Format: functional
Kindly format the answer as number then unit.

compound="CCCCc1nc(Cl)c(C2NC(=O)NC(CNS(=O)(=O)c3ccc(N)cc3)=C2C(=O)OCC)[nH]1 (centres undefined)" result="128 µg/mL"
compound=Cc1cc(NS(=O)(=O)c2ccc(N)cc2)no1 result="32 µg/mL"
compound="CCCCc1nc(Cl)c(C2NC(=O)NC(CN(c3ccc(OC)nn3)S(=O)(=O)c3ccc(N)cc3)=C2C(=O)OCC)[nH]1 (centres undefined)" result="32 µg/mL"
compound="CCCCc1nc(Cl)c(C2NC(=O)NC(C)=C2C(=O)OCC)n1Cc1ccc(F)cc1 (centres undefined)" result="16 µg/mL"

Request: Report MIC from Staphylococcus aureus testing of CCCCc1nc(Cl)c(C2NC(=O)NC(C)=C2C(=O)OCC)n1CC (centres undefined)
Result: 64 µg/mL

Request: Jot down MIC (Staphylococcus aureus) of CCCCc1nc(Cl)c(C2NC(=O)NC(C)=C2C(=O)OCC)n1S(=O)(=O)c1cccc(Cl)c1 (centres undefined) .
Result: 64 µg/mL

Request: Lab note: Staphylococcus aureus assay, enter MIC for CCCCc1nc(Cl)c(C2NC(=O)NC(C)=C2C(=O)OCC)n1S(=O)(=O)c1ccc(F)cc1 (centres undefined) here
Result: 64 µg/mL

Request: State, for Staphylococcus aureus, measured MIC of the compound listed here: CCCCc1nc(Cl)c(C2NC(=O)NC(C)=C2C(=O)OCC)n1CCN1CCOCC1 (centres undefined)
Result: 32 µg/mL

Request: State recorded MIC with Staphylococcus aureus, entry `CCn1cc(C(=O)O)c(=O)c2cc(F)c(N3CCNCC3)cc21` , no comment.
Result: 2 µg/mL

---

System: Pseudomonas aeruginosa
Assay: Antibacterial activity against Pseudomonas aeruginosa assessed as inhibition of bacterial growth by two fold serial dilution method
Type: functional
outcome measure: MIC (µg/mL)
// return numeric value only (unit: µg/mL, not printed)

Before answering, review these 5 worked examples.
compound="CCCCc1nc(Cl)c(C2NC(=O)NC(C)=C2C(=O)OCC)n1Cc1ccc(C)cc1 (stereo not drawn)" study_target="Pseudomonas aeruginosa" outcome_measure=MIC numeric_result=128
compound="C#CCn1c(CCCC)nc(Cl)c1C1NC(=O)NC(C)=C1C(=O)OCC (stereo not drawn)" study_target="Pseudomonas aeruginosa" outcome_measure=MIC numeric_result=64
compound="CCCCc1nc(Cl)c(C2NC(=O)NC(C)=C2C(=O)OCC)n1CCC (stereo not drawn)" study_target="Pseudomonas aeruginosa" outcome_measure=MIC numeric_result=32
compound="CCCCc1nc(Cl)c(C2NC(=O)NC(C)=C2C(=O)OCC)n1S(=O)(=O)c1ccc(C(F)(F)F)cc1 (stereo not drawn)" study_target="Pseudomonas aeruginosa" outcome_measure=MIC numeric_result=32
compound="CCCCc1nc(Cl)c(C2NC(=O)NC(CN(c3ccc(OC)nn3)S(=O)(=O)c3ccc(N)cc3)=C2C(=O)OCC)[nH]1 (stereo not drawn)" study_target="Pseudomonas aeruginosa" outcome_measure=MIC numeric_result=128

Request: Could you please provide reported MIC for CCCCc1nc(Cl)c(C2NC(=O)NC(C)=C2C(=O)OCC)n1S(=O)(=O)c1ccccc1 (stereo not drawn) ? Thanks!
Result: 64

Request: Provide measured MIC value, entry: NC1CCN(c2c(F)cc3c(=O)c(C(=O)O)cn(C4CC4)c3c2Cl)C1 (stereo not drawn)
Result: 1

Request: Tell me MIC reported for CCCCc1nc(Cl)c(C2NC(=O)NC(C)=C2C(=O)OCC)n1Cc1ccc(Cl)cc1 (stereo not drawn)
Result: 128

Request: Give the reported value of MIC for this record: CCCCc1nc(Cl)c(C2NC(=O)NC(C)=C2C(=O)OCC)n1CCF (stereo not drawn)
Result: 64

Request: Identify MIC associated with the compound CCCCc1nc(Cl)c(C2NC(=O)NC(CN(c3nnc(C)s3)S(=O)(=O)c3ccc(N)cc3)=C2C(=O)OCC)[nH]1 (stereo not drawn)
Result: 64

Request: Could you please provide reported MIC for `Cc1cc(NS(=O)(=O)c2ccc(N)cc2)no1` ? Thanks!
Result: 64

Request: Answer with the recorded MIC of CCCCc1nc(Cl)c(C2NC(=O)NC(CN(c3nccs3)S(=O)(=O)c3ccc(N)cc3)=C2C(=O)OCC)[nH]1 (stereo not drawn) only.
Result: 256
